molecular target: UniProt:Q923Y9; test: Cl- currents in Xenopus oocytes expressing rSNORF33 and CFTR (voltage clamp); format: cell-based; details: oocytes expressing rSNORF33 and CFTR, -80 mV; mean ± S.E.M.; read-out: Calculated EC50, Cl- current
Measured Property: EC50

### Prompt I have this compound here, NCCc1c[nH]c2ccc(O)cc12 [Serotonin (5-HT), 5-Hydroxytryptamine] , and I need its recorded EC50.
### Response 3780 nM

### Prompt I have this compound here, NCCc1ccc(O)cc1 , and I need its recorded EC50.
### Response 37 nM

### Prompt I have this compound here, NCCc1c[nH]c2ccccc12 , and I need its recorded EC50.
### Response 54 nM

### Prompt I have this compound here, NCC(O)c1ccc(O)cc1 (stereo not shown) , and I need its recorded EC50.
### Response 635 nM

====

target: rSNORF33 (Rattus norvegicus, UniProt Q923Y9); assay: Cl- currents in Xenopus oocytes expressing rSNORF33 and CFTR (voltage clamp); format: cell-based; settings: test compound 100 μM except where noted; 100 nM TYR
Sequence (Q923Y9 whole entry): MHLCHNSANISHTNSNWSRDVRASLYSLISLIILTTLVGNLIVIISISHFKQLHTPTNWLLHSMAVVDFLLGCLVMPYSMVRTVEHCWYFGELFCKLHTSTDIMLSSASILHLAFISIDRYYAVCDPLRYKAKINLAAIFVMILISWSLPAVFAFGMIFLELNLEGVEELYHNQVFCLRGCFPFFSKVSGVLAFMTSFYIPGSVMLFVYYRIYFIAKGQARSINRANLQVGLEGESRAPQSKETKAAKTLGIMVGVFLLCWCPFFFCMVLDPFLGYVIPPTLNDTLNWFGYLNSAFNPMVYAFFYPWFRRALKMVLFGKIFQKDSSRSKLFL
Measured Property: Antagonism of TYR stimulation of rSNORF33

In [3]: df
Out[3]:
                                   molecule               result
0  CN1C[C@H](CNC(=O)OCc2ccccc2)C[C@@H]2c3cccc4c3c(cn4C)C[C@H]21  significantly block
1  CC(C)NCC(O)COc1cccc2ccccc12 (centres unmarked)  significantly block
2  CC(C)NCC(O)COc1cccc2[nH]ccc12 (centres unmarked)  significantly block

====

target: mouse SNORF33 (Mus musculus); construct: expressed in transfected cells; host or cells: COS-7 (membranes); test: [3H]-TYR binding (saturation and displacement) to mouse SNORF33 COS-7 membranes; conditions: mouse SNORF33, displacement of [3H]TYR; read-out: Ki (individual determinations)
Sequence (Q923Y8 whole entry): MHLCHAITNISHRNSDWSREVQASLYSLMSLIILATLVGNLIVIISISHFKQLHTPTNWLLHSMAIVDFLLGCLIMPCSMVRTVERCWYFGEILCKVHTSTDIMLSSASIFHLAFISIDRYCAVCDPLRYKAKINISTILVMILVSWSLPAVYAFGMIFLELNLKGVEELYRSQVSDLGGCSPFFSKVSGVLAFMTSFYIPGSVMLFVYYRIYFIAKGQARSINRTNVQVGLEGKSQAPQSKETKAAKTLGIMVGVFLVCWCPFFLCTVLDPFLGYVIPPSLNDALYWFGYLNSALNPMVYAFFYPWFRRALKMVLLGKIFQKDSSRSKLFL
Measured Property: Ki (µM)
Report only the number, with the unit µM understood.

### Prompt What measured Ki is associated with NCCc1c[nH]c2ccccc12 on mouse SNORF33 (Mus musculus)?
### Response 0.14

====

target: rSNORF33 (Rattus norvegicus, UniProt Q923Y9)
Lab note - cut at 80 nM for Ki: fulfilled if strictly below, not fulfilled if not.

### Prompt Input NCCc1c[nH]c2ccccc12 ; condition: Ki strictly below 80 nM. Does it hold?
### Response fulfilled

### Prompt Input NCC(O)c1ccc(O)cc1 (centres unmarked) ; condition: Ki strictly below 80 nM. Does it hold?
### Response not fulfilled

### Prompt Input CN[C@@H](C)Cc1ccccc1 ; condition: Ki strictly below 80 nM. Does it hold?
### Response not fulfilled

### Prompt Input NCCc1ccc(O)cc1 ; condition: Ki strictly below 80 nM. Does it hold?
### Response fulfilled

### Prompt Input COc1ccc2[nH]cc(CCN)c2c1 ; condition: Ki strictly below 80 nM. Does it hold?
### Response not fulfilled

### Prompt Input Cl.Cl.Clc1cccc(N2CCNCC2)c1 [m-CPP, dihydrochloride] ; condition: Ki strictly below 80 nM. Does it hold?
### Response not fulfilled

### Prompt Input NCCc1cccc(O)c1 ; condition: Ki strictly below 80 nM. Does it hold?
### Response not fulfilled

### Prompt Input NCCC(=O)c1ccccc1N ; condition: Ki strictly below 80 nM. Does it hold?
### Response not fulfilled

### Prompt Input NCCc1ccccc1 ; condition: Ki strictly below 80 nM. Does it hold?
### Response fulfilled

### Prompt Input NCCc1c[nH]c2ccc(O)cc12 [Serotonin (5-HT), 5-Hydroxytryptamine] ; condition: Ki strictly below 80 nM. Does it hold?
### Response not fulfilled

====

What EC50 was measured for each of the following?
target: UniProt Q923Y9; assay: Intracellular cAMP release in rSNORF33-transfected COS-7 cells; format: cell-based; set-up: expressed in transfected cells; host or cells: COS-7 (transient)
Output should be the measured figure followed by the unit it is expressed in.

### Prompt I have this molecule here, CC(N)C(O)c1ccccc1 (centres unmarked) [Phenylpropanolamine (PPA), Phenylpropanolamine] , and I need its recorded EC50.
### Response 1.8 µM

### Prompt I have this molecule here, NCCc1ccccc1 [β-Phenylethylamine (PEA), β-Phenylethylamine] , and I need its recorded EC50.
### Response 0.01 µM

====

target: UniProt:Q96RJ0; assay: [3H]-TYR binding (saturation and displacement) to human SNORF33 COS-7 membranes; design: expressed in transfected cells; host or cells: COS-7 (membranes); settings: human SNORF33 in transfected COS-7 membranes; read-out: Mean Ki ± S.D.M., displacement of [3H]-tyramine
Sequence (Q96RJ0 whole entry): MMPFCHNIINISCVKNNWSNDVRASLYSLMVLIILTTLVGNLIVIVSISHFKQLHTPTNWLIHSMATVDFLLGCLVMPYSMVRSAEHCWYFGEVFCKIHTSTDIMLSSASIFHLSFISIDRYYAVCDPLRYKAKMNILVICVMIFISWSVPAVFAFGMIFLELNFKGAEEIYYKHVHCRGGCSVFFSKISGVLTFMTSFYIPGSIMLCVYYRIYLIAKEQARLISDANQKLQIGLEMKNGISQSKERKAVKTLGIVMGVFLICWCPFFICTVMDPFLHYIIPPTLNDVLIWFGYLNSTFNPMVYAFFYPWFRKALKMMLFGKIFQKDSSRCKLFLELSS
What Ki was measured for each of the following?
Report only the number, with the unit µM understood.

### Prompt I have this compound here, NCCc1c[nH]c2ccccc12 [Tryptamine (T), Tryptamine] , and I need its recorded Ki.
### Response 1.13

### Prompt I have this compound here, NCCc1ccc(O)cc1 [Tyramine (TYR), Tyramine] , and I need its recorded Ki.
### Response 0.051

### Prompt I have this compound here, NCCC(=O)c1ccccc1N [Kynuramine] , and I need its recorded Ki.
### Response 1.39

### Prompt I have this compound here, NCC(O)c1ccc(O)cc1 (stereo not shown) [Octopamine (OCT), Octopamine] , and I need its recorded Ki.
### Response 0.417

### Prompt I have this compound here, NCCc1cccc(O)c1 [3-OH-PEA] , and I need its recorded Ki.
### Response 0.079

### Prompt I have this compound here, CN[C@@H](C)Cc1ccccc1 [Methamphetamine] , and I need its recorded Ki.
### Response 0.189

### Prompt I have this compound here, NCCc1ccccc1 [β-Phenylethylamine (PEA), β-Phenylethylamine] , and I need its recorded Ki.
### Response 0.008

====

target: rSNORF33 (Rattus norvegicus, UniProt Q923Y9); test: Intracellular cAMP release in rSNORF33-transfected COS-7 cells; type: cell-based; parameters: expressed in transfected cells; host or cells: COS-7 (transient); details: transiently transfected COS-7 cells; 3–8 experiments; read-out: Mean EC50 ± S.E.M., stimulation of rSNORF33 measured by intracellular cAMP release
Class key for EC50 values: group 1 (below 100 nM), group 2 (100 nM to below 400 nM), group 3 (400 nM or more)

### Prompt For this compound, which bin applies? NCCc1c[nH]c2ccccc12
### Response group 1

### Prompt For this compound, which bin applies? NCCc1c[nH]c2ccc(F)cc12
### Response group 2

### Prompt For this compound, which bin applies? COc1ccc2[nH]cc(CCN)c2c1
### Response group 3

### Prompt For this compound, which bin applies? NCCc1ccc(O)cc1
### Response group 1

### Prompt For this compound, which bin applies? NCCc1c[nH]c2ccc(O)cc12 [Serotonin (5-HT), 5-Hydroxytryptamine]
### Response group 3

### Prompt For this compound, which bin applies? NCC(O)c1ccc(O)cc1 (stereo not shown)
### Response group 2

### Prompt For this compound, which bin applies? CN[C@@H](C)Cc1ccccc1
### Response group 2

### Prompt For this compound, which bin applies? Cc1ccc2[nH]cc(CCN)c2c1
### Response group 3

### Prompt For this compound, which bin applies? CNCCCN1c2ccccc2CCc2ccccc21
### Response group 3

### Prompt For this compound, which bin applies? NCCC(=O)c1ccccc1N
### Response group 1
